- tested_on: hTREM2 (Homo sapiens)
- Sequence (Q9NZC2 19-230): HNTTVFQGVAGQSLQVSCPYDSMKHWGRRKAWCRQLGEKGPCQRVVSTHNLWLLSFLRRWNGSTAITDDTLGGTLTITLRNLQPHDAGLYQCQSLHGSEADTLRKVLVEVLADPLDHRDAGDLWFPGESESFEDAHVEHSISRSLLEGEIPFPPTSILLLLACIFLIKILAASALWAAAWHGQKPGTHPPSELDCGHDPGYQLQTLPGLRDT
- Sequence (O43914 22-113 partner): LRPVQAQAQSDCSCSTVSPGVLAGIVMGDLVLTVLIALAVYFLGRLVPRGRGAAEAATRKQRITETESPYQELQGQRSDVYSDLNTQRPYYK
- protocol_notes: Phospho-Syk AlphaScreen/AlphaLISA assay in TREM2 and DAP12 overexpressing HEK293 cells (Example A1)
- Assay type: cell-based
- Set-up: expressed in transfected cells
- test_context: HEK293 cells, read-out: hTREM2 EC50
measured_quantity: EC50

Worked examples follow.
>>> df
                                   molecule          result
0  CCCn1c(C)nc2cc(N3CCO[C@H](c4ccccc4)C3)nc(-c3ccc(Cl)cc3F)c2c1=O [Example 186]  500 to 3000 nM
1  COc1cc([C@@H]2C[C@@H](c3cc4nc(C)n(C)c(=O)c4c(-c4ccc(Cl)cc4F)n3)CCO2)ccn1 (single isomer, unassigned) [Example 175]    50 to 500 nM
2  CCn1cc([C@@H]2CN(c3cc4nc(C)n(C)c(=O)c4c(-c4ccc(Cl)cc4F)n3)CCO2)cn1 (single isomer, unassigned) [Example 24]    50 to 500 nM
3  Cc1nc2cc(N3CCO[C@@H](c4cnn(C(F)(F)F)c4)C3)nc(-c3ccc(Cl)cc3F)c2c(=O)n1C [Example 141]    50 to 500 nM

query: Consider the molecule Cc1nccc(C2CN(c3cc4nc(C)n(C)c(=O)c4c(-c4ccc(Cl)cc4F)n3)CCO2)n1 (stereo not drawn) [Example 63] tested on hTREM2 (Homo sapiens); state its EC50.
result: 500 to 3000 nM

query: Consider the molecule Cc1nc2cc(N3CCO[C@@H](c4noc(C5CC5)n4)C3)nc(-c3ccc(Cl)cc3F)c2c(=O)n1C (single isomer, unassigned) [Example 84] tested on hTREM2 (Homo sapiens); state its EC50.
result: 500 to 3000 nM

Each recorded value in this set is attributed to patent US20250388574A1.
